Just for reference, paper PMC8033753 is where these values come from.

target: ACKR3 (Homo sapiens); construct: expressed in transfected cells; host or cells: HEK293T; test: β-arrestin-2 recruitment to ACKR3, nanoluciferase complementation (NanoBiT) in HEK cells; assay type: cell-based; conditions: pEC50 ± S.E.M, β-arrestin-2 recruitment, ACKR3 (Supplementary Table 2), HEK cells, NanoBiT, three independent experiments
Sequence (P25106 whole entry): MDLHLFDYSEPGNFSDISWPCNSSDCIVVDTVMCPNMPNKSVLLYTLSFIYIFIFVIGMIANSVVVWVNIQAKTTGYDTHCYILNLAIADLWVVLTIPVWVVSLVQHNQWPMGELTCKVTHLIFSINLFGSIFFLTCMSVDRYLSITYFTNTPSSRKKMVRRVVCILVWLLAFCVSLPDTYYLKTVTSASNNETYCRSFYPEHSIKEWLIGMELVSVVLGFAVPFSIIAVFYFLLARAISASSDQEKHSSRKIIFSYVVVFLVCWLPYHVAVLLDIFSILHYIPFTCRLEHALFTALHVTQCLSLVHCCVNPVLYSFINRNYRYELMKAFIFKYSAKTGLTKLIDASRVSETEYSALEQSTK
pEC50: −log10 of the molar value. Where no end group is shown, it is not given here.
Use 1 when the recorded pEC50 is no lower than 6; use 0 when it is lower.

FRKKFNKWALSR-NH2    0
FRKKWNKWAASR-NH2    0
FRKKANKWALSR-NH2    0
FRKKWNKWALTR-NH2    1
FRKKWNKWALS-NH2 [FRKKWNKWALS -]    0
ARKKWNKWALSR-NH2    0
FKKKWNKWALSR-NH2    0
FRKAWNKWALSR-NH2    1

Exam item: decide whether the reported pEC50 for YRKKWNKWALSR-NH2 is at least 6.
0

Say whether FRKKYNKWALSR-NH2 shows pEC50 of 6 or more.
0
